species on record: Rattus norvegicus; experiment: DrugMatrix - Regimen: Daily Repeat; type: toxicity, organism-based, Sprague-Dawley; set-up: regimen Daily Repeat, gender Male, age 6-8 weeks; details: in vivo, po, 0 mg/kg, 120 h, tissue Blood, route oral GAVAGE, dose level Control, time 5 day, vehicle .5 % CMC
In plain terms, low ABSOLUTE EOSINOPHIL, meaning strictly below 100 CELLS/uL, gives satisfied, and everything else gives not satisfied.

{"compound": "CCC[C@@H]1C[C@@H](C(=O)N[C@@H]([C@H]2O[C@H](SC)[C@H](O)[C@@H](O)[C@H]2O)[C@@H](C)O)N(C)C1", "category label": "satisfied"}
{"compound": "Cc1c(-c2ccccc2)oc2c(C(=O)OCCN3CCCCC3)cccc2c1=O [FLAVOXATE]", "category label": "not satisfied"}
{"compound": "CN1CCC[C@@H]1CCO[C@](C)(c1ccccc1)c1ccc(Cl)cc1", "category label": "not satisfied"}
{"compound": "CC(/C=C1\\SC(=S)N(CC(=O)O)C1=O)=C\\c1ccccc1", "category label": "not satisfied"}
{"compound": "CC(C)[C@H](N)C(=O)OCCOCn1cnc2c(=O)[nH]c(N)nc21", "category label": "satisfied"}
{"compound": "COC(=O)c1ccc(O)cc1", "category label": "satisfied"}
{"compound": "O=c1[nH]cc(F)c(=O)[nH]1", "category label": "satisfied"}
{"compound": "CC1(C)[C@H]2CC[C@]1(C)C(=O)C2 [(-)-CAMPHOR]", "category label": "not satisfied"}
{"compound": "COc1c(C)c2c(c(O)c1C/C=C(\\C)CCC(=O)OCCN1CCOCC1)C(=O)OC2 [MYCOPHENOLATE MOFETIL]", "category label": "not satisfied"}
{"compound": "CCOC(=O)OC(C)OC1=C(C(=O)Nc2ccccn2)N(C)S(=O)(=O)c2ccccc21 (stereo not drawn)", "category label": "satisfied"}
{"compound": "Brc1ccccc1", "category label": "satisfied"}
{"compound": "CCc1ccc(C(=O)C(C)CN2CCCCC2)cc1 (stereo not drawn)", "category label": "not satisfied"}

###

organism: Rattus norvegicus; test: DrugMatrix - Regimen: Daily Repeat; assay type: toxicity, organism-based, Sprague-Dawley; parameters: regimen Daily Repeat, gender Male, age 6-8 weeks; details: in vivo, po, 0 mg/kg, 120 h, tissue Blood, route oral GAVAGE, dose level Control, time 5 day, vehicle 100 % WATER

{"molecule": "CN1CCN(C(=O)OC2c3nccnc3C(=O)N2c2ccc(Cl)cn2)CC1 (stereo not given)", "HEMATOCRIT, %": 36.48}
{"molecule": "COc1ccc(C(CN(C)C)C2(O)CCCCC2)cc1 (stereo not given)", "HEMATOCRIT, %": 35.72}
{"molecule": "CC1(C)S[C@@H]2[C@H](NC(=O)[C@H](N)c3ccc(O)cc3)C(=O)N2[C@H]1C(=O)O", "HEMATOCRIT, %": 35.17}
{"molecule": "Clc1ccc(C(c2ccccc2Cl)C(Cl)Cl)cc1 (stereo not given)", "HEMATOCRIT, %": 36.88}
{"molecule": "NCC1(CC(=O)O)CCCCC1", "HEMATOCRIT, %": 34.53}
{"molecule": "Cn1cnc([N+](=O)[O-])c1Sc1ncnc2nc[nH]c12", "HEMATOCRIT, %": 33.83}
{"molecule": "CC(CCc1ccccc1)NCC(O)c1ccc(O)c(C(N)=O)c1 (stereo not given)", "HEMATOCRIT, %": 36.13}
{"molecule": "Cc1cc(NS(=O)(=O)c2ccc(N)cc2)no1", "HEMATOCRIT, %": 35.72}
{"molecule": "NNC(=O)c1ccncc1", "HEMATOCRIT, %": 36.72}
{"molecule": "COc1cccc(C2(O)CCCCC2CN(C)C)c1 (stereo not given)", "HEMATOCRIT, %": 33.53}
{"molecule": "C[C@]12Cc3c[nH]nc3C[C@@H]1CC[C@@H]1[C@@H]2CC[C@@]2(C)[C@H]1CC[C@]2(C)O", "HEMATOCRIT, %": 33.53}
{"molecule": "CNCCC=C1c2ccccc2CCc2ccccc21", "HEMATOCRIT, %": 34.83}
{"molecule": "NC(=O)c1ncn([C@@H]2O[C@H](CO)[C@@H](O)[C@H]2O)n1", "HEMATOCRIT, %": 36.53}
{"molecule": "CC1COc2c(N3CCN(C)CC3)c(F)cc3c(=O)c(C(=O)O)cn1c23 (stereo not given)", "HEMATOCRIT, %": 35.65}
{"molecule": "COc1cc2c(N3CCN(C(=O)Nc4ccc(OC(C)C)cc4)CC3)ncnc2cc1OCCCN1CCCCC1", "HEMATOCRIT, %": 46.82}
{"molecule": "Fc1ccc([C@@H]2CCNC[C@H]2COc2ccc3c(c2)OCO3)cc1", "HEMATOCRIT, %": 33.53}
{"molecule": "CN1CCC[C@H]1c1cccnc1", "HEMATOCRIT, %": 35.65}
{"molecule": "CC(C)(S)[C@@H](N)C(=O)O", "HEMATOCRIT, %": 34.63}
{"molecule": "O=C1NC(=O)C(c2ccccc2)(c2ccccc2)N1", "HEMATOCRIT, %": 34.83}
{"molecule": "Nc1ccc(S(=O)(=O)Nc2ccnn2-c2ccccc2)cc1", "HEMATOCRIT, %": 36.62}

###

organism: Rattus norvegicus; assay: DrugMatrix - Regimen: Daily Repeat; format: toxicity, organism-based, Sprague-Dawley; parameters: regimen Daily Repeat, gender Male, age 6-8 weeks; details: in vivo, po, 2000 mg/kg, 72 h, tissue Plasma, route oral GAVAGE, dose level High, time 3 day, vehicle .5 % CMC

{"compound": "NCC(=O)O", "CREATINE PHOSPHOKINASE / u/L": 113.33}
{"compound": "CC(C)[C@H](N)C(=O)OCCOCn1cnc2c(=O)[nH]c(N)nc21", "CREATINE PHOSPHOKINASE / u/L": 274.33}
{"compound": "NCCCC[C@H](N[C@@H](CCc1ccccc1)C(=O)O)C(=O)N1CCC[C@H]1C(=O)O [LISINOPRIL ANHYDROUS]", "CREATINE PHOSPHOKINASE / u/L": 262}
{"compound": "CC(=O)O[C@]1(C(C)=O)CC[C@H]2[C@@H]3C=C(Cl)C4=CC(=O)CC[C@]4(C)[C@H]3CC[C@@]21C [CHLORMADINONE ACETATE]", "CREATINE PHOSPHOKINASE / u/L": 341.33}

###

species: Rattus norvegicus; assay: DrugMatrix - Regimen: Daily Repeat; format: toxicity, organism-based, Sprague-Dawley; set-up: regimen Daily Repeat, gender Male, age 6-8 weeks; conditions: in vivo, iv, 0 mg/kg, 120 h, tissue Blood, dose level Control, time 5 day, vehicle 100 % SALINE

{"molecule": "CC1(C)S[C@@H]2[C@H](NC(=O)[C@H](NC(=O)N3CCNC3=O)c3ccccc3)C(=O)N2[C@H]1C(=O)O", "display unit": "%", "NEUTROPHIL": 10.17}
{"molecule": "CN(N=O)C(=O)N[C@@H](C=O)[C@@H](O)[C@H](O)[C@H](O)CO", "display unit": "%", "NEUTROPHIL": 7.17}
{"molecule": "NCC[C@H](O)C(=O)N[C@@H]1C[C@H](N)[C@@H](O[C@H]2O[C@H](CN)[C@@H](O)[C@H](O)[C@H]2O)[C@H](O)[C@H]1O[C@H]1O[C@H](CO)[C@@H](O)[C@H](N)[C@H]1O", "display unit": "%", "NEUTROPHIL": 9.33}
{"molecule": "CC[C@@]1(O)C(=O)OCc2c1cc1n(c2=O)Cc2cc3ccccc3nc2-1", "display unit": "%", "NEUTROPHIL": 6.17}

###

species: Rattus norvegicus; experiment: DrugMatrix - Regimen: Daily Repeat; format: toxicity, organism-based, Sprague-Dawley; parameters: regimen Daily Repeat, gender Male, age 6-8 weeks; settings: in vivo, po, 0 mg/kg, 120 h, tissue Plasma, route oral GAVAGE, dose level Control, time 5 day, vehicle 100 % WATER
In plain terms, low CREATINE PHOSPHOKINASE, meaning strictly below 400 u/L, gives true (1), and everything else gives false (0).

{"molecule": "C[C@]12Cc3c[nH]nc3C[C@@H]1CC[C@@H]1[C@@H]2CC[C@@]2(C)[C@H]1CC[C@]2(C)O", "category label": "true (1)"}
{"molecule": "CC(CCc1ccccc1)NCC(O)c1ccc(O)c(C(N)=O)c1 (stereo not given)", "category label": "true (1)"}
{"molecule": "CC1COc2c(N3CCN(C)CC3)c(F)cc3c(=O)c(C(=O)O)cn1c23 (stereo not given)", "category label": "false (0)"}
{"molecule": "CN1CCN(C(=O)OC2c3nccnc3C(=O)N2c2ccc(Cl)cn2)CC1 (stereo not given)", "category label": "true (1)"}
{"molecule": "Cc1cc(NS(=O)(=O)c2ccc(N)cc2)no1", "category label": "true (1)"}

The measured values listed here are drawn from ChEMBL document CHEMBL3885881.
